tested on: Leukemia L-1210 cells; experiment: Test 1: antitumor activity against leukemia induced in CDF1 mice by Leukemia L-1210 cells (life-span increase); assay type: in vivo; conditions: Dose 0.15 mg/kg/day, intraperitoneally once per day for 9 consecutive days, observation 60 days
quantity-name: % Increase in life-span (T/C, %)

# compound, measure-unit, comparison-sign, numeric-value
rows = [
    ("CC(=O)[C@]1(O)Cc2c(O)c3c(c(O)c2[C@@H](O[C@@H]2O[C@@H](C)[C@H](O)[C@@H](O)[C@H]2F)C1)C(=O)c1ccccc1C3=O [Example 2]", "%", "=", 113),
    ("COc1cccc2c1C(=O)c1c(O)c3c(c(O)c1C2=O)C[C@@](O)(C(=O)CO)C[C@@H]3O[C@@H]1O[C@@H](C)[C@H](O)[C@@H](O)[C@H]1F [Example 3]", "%", "=", 157),
    ("COc1cccc2c1C(=O)c1c(O)c3c(c(O)c1C2=O)C[C@@](O)(C(C)=O)C[C@@H]3O[C@@H]1O[C@@H](C)[C@H](O)[C@@H](O)[C@H]1F [Example 1]", "%", "=", 109),
    ("C[C@@H]1O[C@@H](O[C@H]2C[C@](O)(C(=O)CO)Cc3c(O)c4c(c(O)c32)C(=O)c2ccccc2C4=O)[C@H](F)[C@H](O)[C@H]1O [Example 4]", "%", ">", 534),
    ("COc1cccc2c1C(=O)c1c(O)c3c(c(O)c1C2=O)C[C@@](O)(C(=O)COC(=O)CCCCCC(=O)O)C[C@@H]3O[C@@H]1O[C@@H](C)[C@H](O)[C@@H](O)[C@H]1F [Example 9]", "%", "=", 123),
    ("COc1cccc2c1C(=O)c1c(O)c3c(c(O)c1C2=O)C[C@@](O)(C(=O)CO)C[C@@H]3O[C@@H]1O[C@@H](C)[C@@H](O)[C@@H](O)[C@H]1F [reference compound]", "%", "=", 127),
    ("COc1cccc2c1C(=O)c1c(O)c3c(c(O)c1C2=O)C[C@@](O)(C(C)=O)C[C@@H]3O[C@H]1C[C@H](N)[C@H](O)[C@H](C)O1 [Daunomycin, reference compound]", "%", "=", 130),
    ("C[C@@H]1O[C@@H](O[C@H]2C[C@](O)(C(=O)COC(=O)CCCCCC(=O)O)Cc3c(O)c4c(c(O)c32)C(=O)c2ccccc2C4=O)[C@H](F)[C@H](O)[C@H]1O [Example 11]", "%", "=", 121),
    ("COc1cccc2c1C(=O)c1c(O)c3c(c(O)c1C2=O)C[C@@](O)(C(C)=O)C[C@@H]3O[C@@H]1O[C@@H](C)[C@@H](O)[C@@H](O)[C@H]1F [reference compound]", "%", "=", 105),
    ("COc1cccc2c1C(=O)c1c(O)c3c(c(O)c1C2=O)C[C@@](O)(C(=O)CO)C[C@@H]3O[C@H]1C[C@H](N)[C@H](O)[C@H](C)O1 [Adriamycin, reference compound]", "%", "=", 123),
]

----------
Property: % Increase in life-span (T/C, %); scope: individual compounds
test system: Leukemia L-1210 cells; experiment: Test 1: antitumor activity against leukemia induced in CDF1 mice by Leukemia L-1210 cells (life-span increase); format: in vivo; conditions: Dose 5 mg/kg/day, intraperitoneally once per day for 9 consecutive days, observation 60 days
quantity-name: % Increase in life-span (T/C, %)

# compound, measured-on, comparison-sign, numeric-value
data = [
    ("COc1cccc2c1C(=O)c1c(O)c3c(c(O)c1C2=O)C[C@@](O)(C(C)=O)C[C@@H]3O[C@@H]1O[C@@H](C)[C@H](O)[C@@H](O)[C@H]1F", "Leukemia L-1210 cells", "=", 160),
    ("COc1cccc2c1C(=O)c1c(O)c3c(c(O)c1C2=O)C[C@@](O)(C(=O)CO)C[C@@H]3O[C@@H]1O[C@@H](C)[C@@H](O)[C@@H](O)[C@H]1F [reference compound]", "Leukemia L-1210 cells", ">", 750),
    ("COc1cccc2c1C(=O)c1c(O)c3c(c(O)c1C2=O)C[C@@](O)(C(C)=O)C[C@@H]3O[C@H]1C[C@H](N)[C@H](O)[C@H](C)O1 [Daunomycin, reference compound]", "Leukemia L-1210 cells", "=", 117),
    ("COc1cccc2c1C(=O)c1c(O)c3c(c(O)c1C2=O)C[C@@](O)(C(C)=O)C[C@@H]3O[C@@H]1O[C@@H](C)[C@@H](O)[C@@H](O)[C@H]1F [reference compound]", "Leukemia L-1210 cells", "=", 184),
    ("CC(=O)[C@]1(O)Cc2c(O)c3c(c(O)c2[C@@H](O[C@@H]2O[C@@H](C)[C@H](O)[C@@H](O)[C@H]2F)C1)C(=O)c1ccccc1C3=O", "Leukemia L-1210 cells", "=", 73),
    ("COc1cccc2c1C(=O)c1c(O)c3c(c(O)c1C2=O)C[C@@](O)(C(=O)COC(=O)CCCCCC(=O)O)C[C@@H]3O[C@@H]1O[C@@H](C)[C@H](O)[C@@H](O)[C@H]1F", "Leukemia L-1210 cells", ">", 463),
]
